Hello, the source for this data is patent US7271153B2, in case you need it.

# pIC50 per entry
- MEASURED_ON: human SGLT2 (Homo sapiens, UniProt P31639, I433V)
- Sequence (P31639 1-672 I433V): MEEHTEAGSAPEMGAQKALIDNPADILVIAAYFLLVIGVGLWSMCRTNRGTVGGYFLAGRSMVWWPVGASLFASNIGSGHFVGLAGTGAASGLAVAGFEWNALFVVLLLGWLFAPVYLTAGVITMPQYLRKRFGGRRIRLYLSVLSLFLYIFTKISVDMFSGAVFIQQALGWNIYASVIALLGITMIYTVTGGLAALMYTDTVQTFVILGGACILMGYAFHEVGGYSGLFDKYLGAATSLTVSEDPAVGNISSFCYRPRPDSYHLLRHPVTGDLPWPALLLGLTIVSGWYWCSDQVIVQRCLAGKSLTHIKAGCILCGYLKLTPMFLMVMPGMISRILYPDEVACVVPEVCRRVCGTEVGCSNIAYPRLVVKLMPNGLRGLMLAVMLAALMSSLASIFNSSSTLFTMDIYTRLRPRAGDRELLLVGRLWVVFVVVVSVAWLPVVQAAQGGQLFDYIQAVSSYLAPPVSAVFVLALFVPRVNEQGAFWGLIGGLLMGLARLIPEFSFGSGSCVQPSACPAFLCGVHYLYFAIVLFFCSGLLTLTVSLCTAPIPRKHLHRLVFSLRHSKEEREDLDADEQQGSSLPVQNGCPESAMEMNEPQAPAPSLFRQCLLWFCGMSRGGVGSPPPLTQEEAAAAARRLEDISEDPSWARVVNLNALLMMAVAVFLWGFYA
- ASSAY: Assay for inhibitory effect on human SGLT2 activity (uptake of methyl-α-D-glucopyranoside in COS-7 cells expressing transiently human SGLT2)
- RECORDED_CONDITIONS: methyl-α-D-(U-14C)glucopyranoside uptake, 37° C., 2 hours, read-out: IC50 (concentration at which 50% of methyl-α-D-glucopyranoside uptake was inhibited)
In textbook form, pIC50 equals minus log to base ten of the concentration in mol/L.

Worked examples follow.
CHEMICAL_SMILES	MEASURED_ON	pIC50
COc1ccc(Cc2c(C)cc(C)nc2O[C@@H]2O[C@H](CO)[C@@H](O)[C@H](O)[C@H]2O)cc1	human SGLT2 (Homo sapiens, UniProt P31639, I433V)	7.35
CCc1ccc(Cc2c(C)cc(C)nc2O[C@@H]2O[C@H](CO)[C@@H](O)[C@H](O)[C@H]2O)cc1	human SGLT2 (Homo sapiens, UniProt P31639, I433V)	7.39

// fetch human SGLT2 (Homo sapiens, UniProt P31639, I433V) pIC50 for `COc1ccc(Cc2c(C)cc(OC)nc2O[C@@H]2O[C@H](CO)[C@@H](O)[C@H](O)[C@H]2O)cc1`
7.26

Entry `Cc1cc(C)c(Cc2ccc(CCO)cc2)c(O[C@@H]2O[C@H](CO)[C@@H](O)[C@H](O)[C@H]2O)n1` , system human SGLT2 (Homo sapiens, UniProt P31639, I433V): what pIC50 was measured?
7.35
